experiment: Functional metabolic assay to measure dose dependent changes in cell viability from drug treatment in Vero E6/TMPRSS2 cells (cotreated with P-gp inhibitor, Elacridar). Cells are treated with antiviral candidates that have been serially diluted. Cytotoxicity is reported via measuring absorbance and analysis of MTT/MTS assays in uninfected cells. The assay has been performed by Icahn School of Medicine at Mount Sinai.; assay type: toxicity, cell-based, VeroE6/TMPRSS2; conditions: chlorocebus sabaeus, veroe6/tmprss2

Smiles Str: CC(C)[C@H](Nc1ncnc2[nH]c(-c3cnn(C)c3C#N)cc12)c1ccc2c(n1)OCCO2
CC10: > 5 µM

Smiles Str: CC(C)[C@@H](Nc1ncnc2[nH]c(C(=O)N[C@@H]3CCN(C)C3)cc12)c1ccc2c(c1)S(=O)(=O)CCC2
CC10: > 5 µM

Smiles Str: CNC(=O)Cn1cc(-c2cc3c(N[C@@H](c4ccc5c(c4)S(=O)(=O)CCC5)C(C)C)ncnc3[nH]2)cn1
CC10: > 5 µM

Smiles Str: CNCc1cc(-c2cc3c(N[C@@H](c4ccc5c(c4)S(=O)(=O)CCC5)C(C)C)ncnc3[nH]2)co1
CC10: > 5 µM

Smiles Str: Cc1nn(C)cc1-c1cc2c(N[C@H](c3ccc4c(c3)S(=O)(=O)CCC4)C(C)C)ncnc2[nH]1
CC10: > 5 µM

Smiles Str: C[C@H](C(=O)O)[C@@H](NC(=O)c1ncnc2[nH]ccc12)c1ccc(Br)cc1
CC10: > 5 µM

Smiles Str: CC(C)[C@@H](Nc1ncnc2[nH]c(-c3cnn(C)c3C#N)cc12)c1ccc2c(n1)OCCO2
CC10: > 5 µM

Smiles Str: COc1ccc([C@H](Cc2nnn[nH]2)NC(=O)c2ncnc3[nH]ccc23)cc1
CC10: > 5 µM

###

Documented CC50 across a set of compounds
experiment: Functional metabolic assay to measure dose dependent changes in cell viability from drug treatment in HeLa-ACE2 cells. Hela-ACE2 cells are seeded prior to drug treatment, then incubated in MTT (3-[4,5-dimethylthiazol-2-yl]-2,5- diphenyltetrazolium bromide) labelling reagent and SDS. Absorbance is measured at 560 and 750 nm and analyzed by Gen5 software. The assay has been performed by Icahn School of Medicine at Mount Sinai.; format: toxicity, cell-based; conditions: human, HeLa-ACE2 cells

Smiles Str: CCNC(=O)c1cc2c(N[C@@H](c3ccc4c(c3)S(=O)(=O)NCC4)C(C)C)ncnc2[nH]1
CC50: > 20 µM
//
Smiles Str: Cc1nn(C)cc1-c1cc2c(N[C@@H](c3ccc4c(c3)S(=O)(=O)CCC4)C(C)C)ncnc2[nH]1
CC50: > 20 µM
//
Smiles Str: CNCc1cc(-c2cc3c(N[C@@H](c4ccc5c(c4)S(=O)(=O)NCC5)C(C)C)ncnc3[nH]2)co1
CC50: > 20 µM
//
Smiles Str: CC(C)[C@H](Nc1ncnc2[nH]c(-c3cnn(C)c3C#N)cc12)c1ccc2c(n1)OCCO2
CC50: > 20 µM
//
Smiles Str: CC(C)[C@@H](Nc1ncnc2[nH]c(-c3cnn(C)c3)cc12)c1ccc2c(c1)S(=O)(=O)NCC2
CC50: > 20 µM
//
Smiles Str: CC(C)(C)[C@@H](Nc1ncnc2[nH]c(-c3cnn(CC(N)=O)c3)cc12)c1ccc2c(n1)OCCO2
CC50: > 20 µM
//
Smiles Str: CC(C)(C)[C@H](Nc1ncnc2[nH]c(-c3cnn(CC(N)=O)c3)cc12)c1ccc2c(c1)OCCO2
CC50: > 20 µM
//
Smiles Str: CCNC(=O)c1cc2c(N[C@H](c3ccc4c(c3)OCCO4)C(C)C)ncnc2[nH]1
CC50: > 20 µM
//
Smiles Str: CNC(=O)Cn1cc(-c2cc3c(N[C@H](c4ccc5c(c4)S(=O)(=O)CCC5)C(C)C)ncnc3[nH]2)cn1
CC50: > 20 µM
//
Smiles Str: CNC(=O)c1cc2c(N[C@@H](c3ccc4c(c3)S(=O)(=O)CCC4)C(C)C)ncnc2[nH]1
CC50: > 20 µM
//
Smiles Str: CNCc1cc(-c2cc3c(N[C@@H](c4ccc5c(c4)S(=O)(=O)CCC5)C(C)C)ncnc3[nH]2)co1
CC50: > 20 µM
//
Smiles Str: CNC(=O)c1cc2c(N[C@@H](c3ccc4c(c3)OCCO4)C(C)C)ncnc2[nH]1
CC50: > 50 µM
//
Smiles Str: CC(C)[C@@H](Nc1ncnc2[nH]ccc12)c1ccc2c(c1)S(=O)(=O)CCO2
CC50: > 20 µM
//
Smiles Str: CC(C)[C@@H](Nc1ncnc2[nH]ccc12)c1ccc2c(c1)NC(=O)CO2
CC50: > 50 µM
//
Smiles Str: CCNC(=O)c1cc2c(N[C@@H](c3ccc4c(c3)S(=O)(=O)CCO4)C(C)C)ncnc2[nH]1
CC50: > 20 µM
//
Smiles Str: CC(C)[C@H](Nc1ncnc2[nH]ccc12)c1ccc2c(c1)S(=O)(=O)CCC2
CC50: > 20 µM
//
Smiles Str: CC(C)[C@@H](Nc1ncnc2[nH]c(-c3cncc(S(C)(=O)=O)c3)cc12)c1ccc2c(c1)S(=O)(=O)CCC2
CC50: > 20 µM
